Taken from the supplement of paper PMC12636033.

Tested on: muMax20 (Max(13-93) K31hArg/K57hArg, M65Nle)
Experiment: PBM 8-mer E-score (E-score (rank enrichment, -0.5 to 0.5)); higher = stronger preferential binding
In all, about 33,000 sequences were measured (“E-score (rank enrichment, -0.5 to 0.5)”: median about -0.0068, highest 2% from about 0.24 on). What follows is part of a selection rich in the highest values, with near analogues and random picks from the rest.
Entries and their PBM 8-mer E-score
Lab note: jot down the number only; don't add units.

Some solved entries appear below for comparison.
TACATATA : 0.238
AAACTAAC : 0.121

**Query** # returns recorded PBM 8-mer E-score (system: muMax20 (Max(13-93) K31hArg/K57hArg, M65Nle)) for AATGGTAA
**Result** 0.27

**Query** Item: TAAATGTA
**Result** 0.285

**Query** Again, but for ATAGCTGG
**Result** -0.243

**Query** Okay, and CCAATTTA ?
**Result** 0.131

**Query** Repeat for the following sequence: CACATATA
**Result** 0.325

**Query** Do the same for CATACACA please
**Result** 0.221

**Query** Quick one: TATAAATA
**Result** 0.259
